- TARGET_SYSTEM: Alpha-2A adrenergic receptor (Homo sapiens, UniProt P08913); further: assay procedure not described here
- Sequence (P08913 whole entry): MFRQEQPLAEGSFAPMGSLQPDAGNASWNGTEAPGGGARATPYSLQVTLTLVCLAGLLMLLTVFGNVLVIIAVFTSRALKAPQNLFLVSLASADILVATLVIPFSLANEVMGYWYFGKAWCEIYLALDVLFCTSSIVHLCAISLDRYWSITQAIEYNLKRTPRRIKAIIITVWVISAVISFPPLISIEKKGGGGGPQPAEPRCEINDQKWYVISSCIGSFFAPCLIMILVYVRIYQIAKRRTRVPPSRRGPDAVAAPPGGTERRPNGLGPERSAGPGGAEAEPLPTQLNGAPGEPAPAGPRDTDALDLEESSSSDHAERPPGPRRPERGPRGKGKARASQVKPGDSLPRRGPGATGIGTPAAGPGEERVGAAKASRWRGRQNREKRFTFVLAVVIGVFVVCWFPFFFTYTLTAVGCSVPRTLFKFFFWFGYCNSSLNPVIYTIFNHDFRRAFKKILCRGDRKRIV
- Type: functional, cell-based
Quick reference: AC50 of the listed items.
RECORDED_ENDPOINT: AC50

| MOLECULE | RESULT |
| --- | --- |
| Cc1nc(Nc2ncc(C(=O)Nc3c(C)cccc3Cl)s2)cc(N2CCN(CCO)CC2)n1 [DASATINIB] | > 10 µM |
| CC=CC1=C(C(=O)O)N2C(=O)[C@@H](NC(=O)[C@H](N)c3ccc(O)cc3)[C@H]2SC1 [CEFPROZIL] | > 30 µM |
| CC/C=C\C/C=C\C/C=C\C/C=C\C/C=C\CCCC(=O)OCC [ICOSAPENT ETHYL] | > 30 µM |
| Cc1nnc(SCC2=C(C(=O)O)N3C(=O)[C@@H](NC(=O)Cn4cnnn4)[C@H]3SC2)s1 [CEFAZOLIN] | > 300 µM |

* * *

- TARGET_SYSTEM: Alpha-1A adrenergic receptor (Homo sapiens); further: assay procedure not described here
- Sequence (P35348 whole entry): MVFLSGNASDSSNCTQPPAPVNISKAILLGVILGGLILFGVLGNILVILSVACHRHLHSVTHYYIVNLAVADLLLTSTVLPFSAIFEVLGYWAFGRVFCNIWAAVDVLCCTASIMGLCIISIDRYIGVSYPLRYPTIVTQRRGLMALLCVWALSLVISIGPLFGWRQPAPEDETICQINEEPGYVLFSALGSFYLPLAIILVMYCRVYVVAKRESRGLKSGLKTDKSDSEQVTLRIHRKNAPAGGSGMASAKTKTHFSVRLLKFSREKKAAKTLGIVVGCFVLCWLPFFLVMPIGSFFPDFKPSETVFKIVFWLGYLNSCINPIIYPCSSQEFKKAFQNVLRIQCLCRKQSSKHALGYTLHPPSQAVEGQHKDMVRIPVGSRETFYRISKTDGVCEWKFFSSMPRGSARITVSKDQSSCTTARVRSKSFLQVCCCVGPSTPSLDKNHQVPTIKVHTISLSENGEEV
- Format: functional, cell-based

| MOLECULE | AC50 |
| --- | --- |
| CC(Cc1cccc(C(F)(F)F)c1)NCCOC(=O)c1ccccc1 (stereo not drawn) | > 30 µM |
| CN(CCOc1ccc(CC2SC(=O)NC2=O)cc1)c1ccccn1 (stereo not drawn) | > 30 µM |
| CCN1CCCC1CNC(=O)c1cc(S(=O)(=O)CC)ccc1OC (stereo not drawn) [SULTOPRIDE] | > 30 µM |
| CCC(=O)O[C@]1(C(=O)CCl)[C@@H](C)C[C@H]2[C@@H]3CCC4=CC(=O)C=C[C@]4(C)[C@@]3(F)[C@@H](O)C[C@@]21C [CLOBETASOL PROPIONATE] | > 30 µM |
| O=C(NCCO[N+](=O)[O-])c1cccnc1 | > 30 µM |
| c1ccc(C2(N3CCCCC3)CCCCC2)cc1 | > 30 µM |
| CC(C)C[C@H](NC(=O)[C@@H](O)[C@H](N)Cc1ccccc1)C(=O)O | > 30 µM |
| COc1cc(C)c(/C=C/C(C)=C/C=C/C(C)=C/C(=O)O)c(C)c1C | > 30 µM |

* * *

AC50 reference
- TARGET_SYSTEM: Thromboxane A2 receptor (Homo sapiens, UniProt P21731); further: assay procedure not described here
- Sequence (P21731 whole entry): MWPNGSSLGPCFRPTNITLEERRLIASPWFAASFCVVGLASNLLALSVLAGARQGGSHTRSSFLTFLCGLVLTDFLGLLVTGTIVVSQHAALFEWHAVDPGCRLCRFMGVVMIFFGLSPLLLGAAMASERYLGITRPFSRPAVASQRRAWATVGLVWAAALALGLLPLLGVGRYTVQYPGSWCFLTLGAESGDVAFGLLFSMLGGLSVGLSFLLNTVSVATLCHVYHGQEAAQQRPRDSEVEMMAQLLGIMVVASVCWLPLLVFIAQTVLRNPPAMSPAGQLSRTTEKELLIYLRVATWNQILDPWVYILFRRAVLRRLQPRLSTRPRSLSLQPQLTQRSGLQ
- Type: functional, cell-based

| COMPOUND | TARGET_SYSTEM | AC50 |
| --- | --- | --- |
| CC(C)(C)NC(=O)N[C@H](C(=O)N1C[C@H]2[C@@H]([C@H]1C(=O)NC(CC1CCC1)C(=O)C(N)=O)C2(C)C)C(C)(C)C (stereo partly specified) | Thromboxane A2 receptor (Homo sapiens, UniProt P21731) | > 30 µM |
| CCCCC1C(=O)N(c2ccccc2)N(c2ccc(O)cc2)C1=O (stereo unspecified) [OXYPHENBUTAZONE ANHYDROUS] | Thromboxane A2 receptor (Homo sapiens, UniProt P21731) | > 30 µM |
| CC[N+](C)(CC)CCOC(=O)C(O)(c1ccccc1)C1CCCCC1 (stereo unspecified) | Thromboxane A2 receptor (Homo sapiens, UniProt P21731) | > 30 µM |
| O=C(O)Cc1ccccc1Oc1ccc(Cl)cc1Cl | Thromboxane A2 receptor (Homo sapiens, UniProt P21731) | > 30 µM |
| Clc1ccc(C(Cn2ccnc2)OCc2csc3c(Cl)cccc23)c(Cl)c1 (stereo unspecified) | Thromboxane A2 receptor (Homo sapiens, UniProt P21731) | > 30 µM |
| Cc1ccsc1C(=CCCN1CCC[C@@H](C(=O)O)C1)c1sccc1C | Thromboxane A2 receptor (Homo sapiens, UniProt P21731) | > 30 µM |
| CC(O)(CS(=O)(=O)c1ccc(F)cc1)C(=O)Nc1ccc(C#N)c(C(F)(F)F)c1 (stereo unspecified) [BICALUTAMIDE] | Thromboxane A2 receptor (Homo sapiens, UniProt P21731) | > 10 µM |
| C=N[C@@H](C(=O)N[C@@H]1C(=O)N2[C@@H]1SC(C)(C)[C@@H]2C(=O)O)c1ccccc1 | Thromboxane A2 receptor (Homo sapiens, UniProt P21731) | > 30 µM |
| NC(=O)[C@@H]1CC[C@@H]2CN1C(=O)N2OS(=O)(=O)O | Thromboxane A2 receptor (Homo sapiens, UniProt P21731) | > 30 µM |
| CC(C)[C@@H]1CC[C@@H](C)C[C@H]1O | Thromboxane A2 receptor (Homo sapiens, UniProt P21731) | > 30 µM |
| Nc1cccc2c1C(=O)N(C1CCC(=O)NC1=O)C2=O (stereo unspecified) [POMALIDOMIDE] | Thromboxane A2 receptor (Homo sapiens, UniProt P21731) | 26.7 µM |
| COc1cc(C(C)=O)ccc1OCCCN1CCC(c2noc3cc(F)ccc23)CC1 | Thromboxane A2 receptor (Homo sapiens, UniProt P21731) | > 10 µM |
| C[C@@H]1C[C@H]2[C@@H]3C[C@H](F)C4=CC(=O)C=C[C@]4(C)[C@H]3[C@@H](O)C[C@]2(C)[C@@]1(O)C(=O)CO | Thromboxane A2 receptor (Homo sapiens, UniProt P21731) | > 30 µM |
| C[N+](C)(C)CCOP(=O)(O)OP(=O)([O-])OC[C@H]1O[C@@H](n2ccc(N)nc2=O)[C@H](O)[C@@H]1O | Thromboxane A2 receptor (Homo sapiens, UniProt P21731) | > 30 µM |
| CCCCc1oc2ccc(NS(C)(=O)=O)cc2c1C(=O)c1ccc(OCCCN(CCCC)CCCC)cc1 | Thromboxane A2 receptor (Homo sapiens, UniProt P21731) | > 30 µM |
| CC(=O)O[C@]1(C(C)=O)CC[C@H]2[C@@H]3C=C(Cl)C4=CC(=O)[C@@H]5C[C@@H]5[C@]4(C)[C@H]3CC[C@@]21C [CYPROTERONE ACETATE] | Thromboxane A2 receptor (Homo sapiens, UniProt P21731) | > 30 µM |

meta.source: ChEMBL document CHEMBL5291721
